Values were extracted from ChEMBL document CHEMBL1124543.

Listed below: inhibition in vivo at 2 mg/kg values for each entry.
Test system: Canis familiaris
Experimental Details: Inhibition of histamine stimulated gastric acid secretion in adult mongrel dogs at 2 mg/kg compound administered perorally
Format: functional
Condition Description: Canis lupus familiaris, Stomach, route oral

| Molecular String | inhibition in vivo at 2 mg/kg, % |
| --- | --- |
| Cc1nc2c(/C=C/Cc3ccccc3)cccn2c1CC#N | 43 |
| Cc1nc2c(/C=C\c3ccsc3)cccn2c1C | 5 |
| Cc1nc2c(/C=C\c3ccccc3)cccn2c1N | 0 |
| Cc1nc2c(/C=C\c3ccccc3)cccn2c1C | 25 |
